Provenance of the data: patent US20230058171A1

# testMethodNotes: Preliminary pharmacokinetics in trial 1403-0001 (Arm A D1 q3w, Arm B D1 D8 q4w)
# Assay type: in vivo, human
# testConditions: human, plasma, oral, 5 mg, Day 8, D1 D8 q4w (Arm B), median, N=3; read-out: tmax
recordedEndpoint: Tmax (h)

chemicalstring=Cc1c(C(=O)O)ccc2c3n(nc12)[C@@H]1[C@H](C3)N(CC2CC2)[C@@]2(C(=O)Nc3cc(Cl)ccc32)[C@H]1c1cccc(Cl)c1F endpointvalue=4

* * *

# testMethodNotes: Preliminary pharmacokinetics in trial 1403-0001 (Arm A D1 q3w, Arm B D1 D8 q4w)
# Format: in vivo, human
# testConditions: human, plasma, oral, 15 mg, Day 1, D1 D8 q4w (Arm B), gMean, N=3; read-out: t1/2 (converted)
recordedEndpoint: half-life (h)

compound="Cc1c(C(=O)O)ccc2c3n(nc12)[C@@H]1[C@H](C3)N(CC2CC2)[C@@]2(C(=O)Nc3cc(Cl)ccc32)[C@H]1c1cccc(Cl)c1F [MDM2-antagonist of formula I]" endpointvalue=33.4

* * *

# testMethodNotes: Preliminary pharmacokinetics in trial 1403-0001 (Arm A D1 q3w, Arm B D1 D8 q4w)
# Assay type: in vivo, human
# testConditions: human, plasma, oral, 30 mg, Day 8, D1 D8 q4w (Arm B), gMean, N=3; read-out: Cmax
recordedEndpoint: Cmax (nM)

chemicalstring=Cc1c(C(=O)O)ccc2c3n(nc12)[C@@H]1[C@H](C3)N(CC2CC2)[C@@]2(C(=O)Nc3cc(Cl)ccc32)[C@H]1c1cccc(Cl)c1F endpointvalue=1330

* * *

# testMethodNotes: Preliminary pharmacokinetics in trial 1403-0001 (Arm A D1 q3w, Arm B D1 D8 q4w)
# Format: in vivo, human
# testConditions: human, plasma, oral, 20 mg, Arm A D1 q3w, 20 mg, N=2; read-out: tmax (median)
recordedEndpoint: Tmax

molecule="Cc1c(C(=O)O)ccc2c3n(nc12)[C@@H]1[C@H](C3)N(CC2CC2)[C@@]2(C(=O)Nc3cc(Cl)ccc32)[C@H]1c1cccc(Cl)c1F [MDM2-antagonist of formula I]" endpointvalue="5.5 h"

* * *

# testMethodNotes: Preliminary pharmacokinetics in trial 1403-0001 (Arm A D1 q3w, Arm B D1 D8 q4w)
# Assay type: in vivo, human
# testConditions: human, plasma, oral, 20 mg, Arm A D1 q3w, 20 mg, N=2; read-out: Cmax (gMean)
recordedEndpoint: Cmax (µM)

compound="Cc1c(C(=O)O)ccc2c3n(nc12)[C@@H]1[C@H](C3)N(CC2CC2)[C@@]2(C(=O)Nc3cc(Cl)ccc32)[C@H]1c1cccc(Cl)c1F [MDM2-antagonist of formula I]" recordedendpoint=Cmax endpointvalue=1.16

* * *

# testMethodNotes: Preliminary pharmacokinetics in trial 1403-0001 (Arm A D1 q3w, Arm B D1 D8 q4w)
# Assay type: in vivo, human
# testConditions: human, plasma, oral, 80 mg, Arm A D1 q3w, 80 mg, N=2; read-out: AUC0-∞, gMean (gCV [%])
recordedEndpoint: AUC(0-inf)

chemicalstring=Cc1c(C(=O)O)ccc2c3n(nc12)[C@@H]1[C@H](C3)N(CC2CC2)[C@@]2(C(=O)Nc3cc(Cl)ccc32)[C@H]1c1cccc(Cl)c1F recordedendpoint=AUC(0-inf) endpointvalue="205 µM·h"
